The reported measurements were obtained from the RepoRT retention time repository (doi:10.1016/j.chroma.2022.462867).

- Test Method Notes: RP, Phenomenex Kinetex EVO C18, 150 × 3 mm, 2.6 µm, 40 °C, 0.35 mL/min, estimated dead time 1.9 min; A: water + 5 mM ammonium formate, pH 5; B: acetonitrile; gradient (min/%B) 0/5 20/100 25/100 30/5
- Assay Context: stereoisomer not certain
I'd appreciate it if you could supply LC retention time values for the items below.
Answers are plain numbers, in min.

Solved entries:
Compound	LC retention time (min)
CCc1cccc(CC)c1N(COC)C(=O)CCl	13
CCc1cccc(C)c1N(C(=O)CCl)C(C)COC (stereo unspecified)	12.9
Nc1cnn(-c2ccccc2)c(=O)c1Cl	6.18
COC(=O)C1C2CC3c4[nH]c5cc(OC)ccc5c4CCN3CC2CC(OC(=O)c2cc(OC)c(OC)c(OC)c2)C1OC (stereo unspecified)	13.3
CCC(C)(C)C(=O)OC1CC(C)C=C2C=CC(C)C(CCC3CC(O)CC(=O)O3)C21 (stereo unspecified)	14.9
O=C(NCC1CCCCN1)c1cc(OCC(F)(F)F)ccc1OCC(F)(F)F (stereo unspecified) [Flecainide]	11.5

Please look at the items below and tell me LC retention time for each one, in order.
1. CCC(=O)Nc1ccc(Cl)c(Cl)c1
2. CSc1nc2ccccc2s1
3. CCOP(=O)(OCC)OCC [Triethyl phosphate]
4. CCCN(CCC)c1c([N+](=O)[O-])cc(C(F)(F)F)cc1[N+](=O)[O-]
5. CN(C)C(=O)Nc1ccc(Cl)c(Cl)c1

Reply:
11.8
11.6
6.52
16.5
10.6

* * *

Provide the recorded LC retention time for the entries that follow.
- Test Method Notes: RP, Phenomenex Kinetex PS C18, 150 × 3 mm, 2.6 µm, 40 °C, 0.35 mL/min, estimated dead time 1.9 min; A: water + 5 mM ammonium acetate, pH 5; B: methanol; gradient (min/%B) 0/5 20/100 25/100 30/5
- Assay Context: stereoisomer not certain
Numbers only, in min.

Kindly give each listed record's LC retention time.
1. CCCCC(=O)N(Cc1ccc(-c2ccccc2-c2nn[nH]n2)cc1)C(C(=O)O)C(C)C (centres undefined)
2. C1=Cc2ccccc2Nc2ccccc21
3. NCC1(CC(=O)O)CCCCC1
4. COc1ccc(Cl)cc1C(=O)NCCc1ccc(S(=O)(=O)NC(=O)NC2CCCCC2)cc1 [Glibenclamide]

Reply:
13.5
15.5
5.49
16

* * *

- Test Method Notes: RP, Phenomenex Kinetex EVO C18, 150 × 3 mm, 2.6 µm, 40 °C, 0.35 mL/min, estimated dead time 1.9 min; A: water + 0.1% formic acid, pH 3; B: methanol; gradient (min/%B) 0/5 20/100 25/100 30/5
- Assay Context: stereoisomer not certain
For each entry below, report its LC retention time value.
Numbers only, in min.

Worked cases, LC retention time given:
Molecule	Test Result
CNC(=O)C=C(C)OP(=O)(OC)OC	6.95
NCC1(CC(=O)O)CCCCC1	4.04
CC12CCC(=O)C=C1CCC1C2C(O)CC2(C)C(C(=O)CO)CCC12 (configuration not stated)	14
CC12CCC3c4ccc(O)cc4CCC3C1CCC2=O (configuration not stated)	15.1
c1ccc2c(c1)[nH]c1ccccc12	15.5

Go through the list and state LC retention time for each entry.
1. CN(C)C(=O)Nc1ccc(Cl)c(Cl)c1
2. CC(C)(C)C(=O)C(Oc1ccc(Cl)cc1)n1ccnc1 (configuration not stated)
3. Cc1cc(=O)n(-c2ccccc2)n1C [Phenazone (Antipyrine)]

Reply:
1: 13.9; 2: 11.5; 3: 7.82

List the reported LC retention time of each molecule below.
1. CCCc1cc(=O)[nH]c(=S)[nH]1
2. c1ccc2scnc2c1
3. CCOP(=O)(OCC)OCC [Triethyl phosphate]
4. CCN=C1NC(=NCC)NC(Cl)N1 (configuration not stated)
5. Cc1cccc(C)c1N(Cn1cccn1)C(=O)CCl
6. CC(=O)OCC(=O)C1(O)CCC2C3CCC4=CC(=O)CCC4(C)C3C(O)CC21C (configuration not stated) [Hydrocortisonacetate]
7. CCCCC1=NC2(CCCC2)C(=O)N1Cc1ccc(-c2ccccc2-c2nn[nH]n2)cc1

Reply:
[6.85, 11.2, 10.5, 11.9, 13.7, 14.3, 14.5]

Give LC retention time for each of the items listed below.
1. O=C(NCC1CCCCN1)c1cc(OCC(F)(F)F)ccc1OCC(F)(F)F (configuration not stated) [Flecainide]
2. CCc1cccc(C)c1N(C(=O)CCl)C(C)COC (configuration not stated)

Reply:
1: 9.18; 2: 16.3
